biological target: E3 ubiquitin-protein ligase CBL-B (Homo sapiens, UniProt Q13191); test: Inhibition of Cbl-b (unknown origin) by HTRF assay
Sequence (Q13191 whole entry): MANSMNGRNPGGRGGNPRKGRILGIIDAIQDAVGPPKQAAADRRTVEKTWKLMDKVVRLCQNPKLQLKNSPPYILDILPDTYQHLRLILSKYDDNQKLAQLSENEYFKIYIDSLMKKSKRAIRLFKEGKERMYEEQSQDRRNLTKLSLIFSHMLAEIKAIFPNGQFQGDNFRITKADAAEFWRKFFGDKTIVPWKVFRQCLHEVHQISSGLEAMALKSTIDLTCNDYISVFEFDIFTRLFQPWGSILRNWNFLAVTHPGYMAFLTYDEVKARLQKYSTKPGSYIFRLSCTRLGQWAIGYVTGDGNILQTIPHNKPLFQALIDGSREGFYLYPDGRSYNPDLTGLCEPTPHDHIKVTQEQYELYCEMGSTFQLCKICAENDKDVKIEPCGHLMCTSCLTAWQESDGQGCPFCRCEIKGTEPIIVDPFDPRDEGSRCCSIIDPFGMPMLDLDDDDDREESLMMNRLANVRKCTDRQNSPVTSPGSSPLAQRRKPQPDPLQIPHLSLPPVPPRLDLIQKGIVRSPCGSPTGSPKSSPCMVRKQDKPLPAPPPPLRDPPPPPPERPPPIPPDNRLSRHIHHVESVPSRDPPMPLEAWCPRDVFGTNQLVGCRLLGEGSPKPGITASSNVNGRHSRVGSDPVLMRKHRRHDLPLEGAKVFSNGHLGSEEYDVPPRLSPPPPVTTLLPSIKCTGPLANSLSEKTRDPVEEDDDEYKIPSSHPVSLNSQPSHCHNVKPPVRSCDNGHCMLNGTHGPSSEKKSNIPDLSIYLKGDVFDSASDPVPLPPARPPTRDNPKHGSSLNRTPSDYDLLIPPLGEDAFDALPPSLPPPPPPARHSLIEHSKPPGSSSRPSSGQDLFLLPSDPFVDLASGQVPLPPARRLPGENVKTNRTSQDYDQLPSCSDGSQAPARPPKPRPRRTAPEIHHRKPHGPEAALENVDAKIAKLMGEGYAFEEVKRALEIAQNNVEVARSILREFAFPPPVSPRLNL
assay endpoint: pIC50
Conceptually, pIC50 converts a concentration in mol/L into minus its log10.

Would you kindly share the measured pIC50 for "CC(C)[C@H]1CN(C)CCN1Cc1cc(C(=O)Nc2cccc(C3([C@@H](F)c4nncn4C)CC(F)(F)C3)c2)nc(C2CC2)c1" ? 8.15

Please give the result for "Cn1cnnc1[C@]1(c2cccc(N3C(=O)c4cc(CNC5(C)CCC5)cc5cccc3c45)c2)C[C@H](C)C1" too. 7.70

###

molecular target: E3 ubiquitin-protein ligase CBL-B (Homo sapiens, UniProt Q13191)
assay endpoint: Kd

Would you kindly share the measured Kd for "C[C@H]1CCCN(Cc2cc3c(c(C(F)(F)F)c2)CN(c2cccc([C@]4(c5nncn5C)C[C@@H](C)C4)c2)C3=O)C1" ? 8 nM
